target: H3 receptor (Cavia porcellus, UniProt Q9JI35); construct: The source of the H3 receptors in this experiment was guinea pig brain; from tissue; host or cells: guinea pig brain membranes; experiment: H3 Receptor Binding Assay (guinea pig brain membranes, [3H]R-α-methylhistamine or [3H]-N-methylhistamine); conditions: 3 nM radioligand, 30° C., 30 min
Sequence (Q9JI35 whole entry): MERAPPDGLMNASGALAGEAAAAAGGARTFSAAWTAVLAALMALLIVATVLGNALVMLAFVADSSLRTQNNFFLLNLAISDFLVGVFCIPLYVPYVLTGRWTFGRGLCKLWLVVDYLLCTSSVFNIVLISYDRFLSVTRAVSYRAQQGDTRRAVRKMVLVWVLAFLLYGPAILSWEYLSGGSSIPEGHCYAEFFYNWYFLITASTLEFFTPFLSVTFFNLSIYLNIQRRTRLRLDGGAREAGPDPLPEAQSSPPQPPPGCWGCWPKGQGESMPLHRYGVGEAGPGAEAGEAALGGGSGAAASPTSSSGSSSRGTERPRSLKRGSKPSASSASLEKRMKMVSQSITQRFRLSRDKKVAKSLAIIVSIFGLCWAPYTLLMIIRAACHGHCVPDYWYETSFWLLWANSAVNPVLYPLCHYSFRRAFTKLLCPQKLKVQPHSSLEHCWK
Assay Metric: Ki (µM)

I = O=C(/C=C/c1cccnc1)N1CCN(CCCCc2c[nH]cn2)CC1
II = O=C(NCCCCc1c[nH]cn1)C1CNCCN1Cc1ccc(Cl)cc1 (centres unmarked)
QUERY: Of the pair I and II , name the member with the lesser recorded Ki. Respond with the label that goes with your answer.
RESULT: I

a = O=C(NCCCCc1c[nH]cn1)C1CN(Cc2ccc(Cl)cc2)CCN1 (centres unmarked)
b = O=C(NCCCCc1c[nH]cn1)C1CN(Cc2ccc(Cl)cc2)CCN1Cc1ccc(Cl)cc1 (centres unmarked)
QUERY: So which one has the bigger Ki here, a or b ? Respond with the label that goes with your answer.
RESULT: a
(a: 0.046 µM, b: 0.02 µM)

The values you see were collected from patent US6211182A.
